tested on: Fibroblast; assay: Multiplex assay against human fibroblast; assay type: toxicity, cell-based; conditions: 48 h, 10 µM, compound concentration 10 uM, replicate 2
Class field: derived from Population Pyknosed Nuclei (%); ranges bin A = under 3%, bin B = from 3% up to 10%, bin C = 10% and over

- COMPOUND: "CC(C)Oc1ccc(C(=O)N[C@H](CNC(=O)CN(C)C)Cc2ccc(-c3cn4cccc([C@H](C)O)c4n3)cc2)cc1Cl [GSK-923295A]"
  CAT: "bin C"
- COMPOUND: "COc1cc(N2CCC(N(C)C)CC2)ccc1Nc1ncc(Cl)c(Nc2ccccc2P(C)(C)=O)n1"
  CAT: "bin B"
- COMPOUND: "CC(=O)c1cc(-c2cc(C(=O)NC3CC3)ccc2C)c2ncccn12"
  CAT: "bin B"
- COMPOUND: "Cc1cc2c(cc1N1C(=O)c3cccc4c(CCCO)ccc(c34)C1=O)n(C)c(=O)n2C"
  CAT: "bin B"
- COMPOUND: "CCn1c(-c2nonc2N)nc2cnc(Oc3cccc(NC(=O)c4ccc(OCCN5CCOCC5)cc4)c3)cc21 [GSK-269962A]"
  CAT: "bin B"
- COMPOUND: "Nc1ccc(C(=O)Nc2cccc(-c3nc(N4CCOCC4)c4oc5ncccc5c4n3)c2)cn1"
  CAT: "bin A"
- COMPOUND: "Nc1nc2c(c(N3CCNCC3)n1)CCC1=C2[C@@H]2CCCC[C@@H]2O1"
  CAT: "bin C"
- COMPOUND: "COc1ccc(NS(=O)(=O)c2sc3ccc(Cl)cc3c2C)cc1N1CCNCC1.Cl"
  CAT: "bin C"
- COMPOUND: "CNC(=O)c1nn(C)c2c1C(C)(C)Cc1cnc(Nc3ccc(N4CCN(C)CC4)cc3)nc1-2 [MILCICLIB]"
  CAT: "bin A"
- COMPOUND: "CC(C)N1CCC(C)(C)c2cc(C#Cc3ccc(C(=O)O)cc3)ccc21"
  CAT: "bin A"
- COMPOUND: "C1=N/C2=N/c3ccc(OCCN4CCCC4)c(c3)COC/C=C\\COCc3cccc(c3)C(=C1)N2"
  CAT: "bin C"
- COMPOUND: "Cl.Cl.Nc1ncnc2c1c(-c1cccc(OCc3ccccc3)c1)cn2[C@H]1C[C@@H](CN2CCC2)C1"
  CAT: "bin C"
- COMPOUND: "CCCn1c(=O)c2[nH]c(C34CC5CC(CC3C5)C4)nc2n(CCC)c1=O [ROLOFYLLINE]"
  CAT: "bin B"
- COMPOUND: "COc1cc2c(NC3CCN(C(C)C)CC3)nc(N3CCC(F)(F)CC3)nc2cc1OCCCN1CCCC1"
  CAT: "bin C"

---

system: U2OS; experiment: Multiplex assay against U2OS; format: toxicity, cell-based; conditions: human, 48 h, 1 µM, compound concentration 1 uM, replicate 1

- COMPOUND: "COc1cc2c(NC3CCN(C(C)C)CC3)nc(N3CCC(F)(F)CC3)nc2cc1OCCCN1CCCC1"
  Population Pyknosed Nuclei (%): 24
- COMPOUND: "CC(C)N1CCC(C)(C)c2cc(C#Cc3ccc(C(=O)O)cc3)ccc21"
  Population Pyknosed Nuclei (%): 3
- COMPOUND: "Cc1cc2c(cc1N1C(=O)c3cccc4c(CCCO)ccc(c34)C1=O)n(C)c(=O)n2C"
  Population Pyknosed Nuclei (%): 11
- COMPOUND: "Cc1nc(Cc2cccc(C(F)(F)F)c2)sc1-c1ccc(C(N)=O)nc1 [TP-024n]"
  Population Pyknosed Nuclei (%): 6
- COMPOUND: "Nc1nc2c(c(N3CCNCC3)n1)CCC1=C2[C@@H]2CCCC[C@@H]2O1"
  Population Pyknosed Nuclei (%): 13

---

tested on: U2OS; test: Multiplex assay against U2OS; format: toxicity, cell-based; conditions: human, 48 h, 1 µM, compound concentration 1 uM, replicate 2
Items are presented alongside their recorded Population Fragmented Nuclei (%).
EXPERIMENTAL READOUT: Population Fragmented Nuclei (%)

- SMILES STRUCTURE: "COc1cc2c(NC3CCN(C(C)C)CC3)nc(N3CCC(F)(F)CC3)nc2cc1OCCCN1CCCC1"
  EXPERIMENTAL READOUT: "Population Fragmented Nuclei (%)"
  RECORDED NUMBER: 8
- SMILES STRUCTURE: "COc1ccc(NS(=O)(=O)c2sc3ccc(Cl)cc3c2C)cc1N1CCNCC1.Cl"
  EXPERIMENTAL READOUT: "Population Fragmented Nuclei (%)"
  RECORDED NUMBER: 13
- SMILES STRUCTURE: "O=C(O)c1ccc2cc(-c3ccc(O)c(C45CC6CC(CC(C6)C4)C5)c3)ccc2c1"
  EXPERIMENTAL READOUT: "Population Fragmented Nuclei (%)"
  RECORDED NUMBER: 9
- SMILES STRUCTURE: "CCc1cc2c(cc1CC)CC(NC[C@H](O)c1ccc(O)c3[nH]c(=O)ccc13)C2"
  EXPERIMENTAL READOUT: "Population Fragmented Nuclei (%)"
  RECORDED NUMBER: 6

---

system: U2OS; test: Multiplex assay against U2OS; type: toxicity, cell-based; details: human, 12 h, 1 µM, compound concentration 1 uM, replicate 2
Items are presented alongside their recorded Population Mitotic Cells (%).

- COMPOUND: "CC(C)Oc1ccc(C(=O)N[C@H](CNC(=O)CN(C)C)Cc2ccc(-c3cn4cccc([C@H](C)O)c4n3)cc2)cc1Cl [GSK-923295A]"
  Population Mitotic Cells (%): 78
- COMPOUND: "CCCn1c(=O)c2[nH]c(C34CC5CC(CC3C5)C4)nc2n(CCC)c1=O"
  Population Mitotic Cells (%): 28
- COMPOUND: "CC(=O)c1cc(-c2cc(C(=O)NC3CC3)ccc2C)c2ncccn12"
  Population Mitotic Cells (%): 33
- COMPOUND: "COc1ccc(NS(=O)(=O)c2sc3ccc(Cl)cc3c2C)cc1N1CCNCC1.Cl"
  Population Mitotic Cells (%): 71
- COMPOUND: "CN(C)C/C=C/C(=O)Nc1cc2c(Nc3ccc(F)c(Cl)c3)ncnc2cc1O[C@H]1CCOC1.O=C(O)/C=C\\C(=O)O.O=C(O)/C=C\\C(=O)O [AFATINIB DIMALEATE]"
  Population Mitotic Cells (%): 62
- COMPOUND: "CC(C)N1CCC(C)(C)c2cc(C#Cc3ccc(C(=O)O)cc3)ccc21"
  Population Mitotic Cells (%): 80
- COMPOUND: "N#Cc1cnc(Nc2cc(NC[C@H]3CNCCO3)c(C(F)(F)F)cn2)cn1"
  Population Mitotic Cells (%): 83

---

Items are presented alongside their recorded Population Mitotic Cells (%).
test system: HEK-293T; assay: Multiplex assay against HEK293T; assay type: toxicity, cell-based; conditions: human, 12 h, 1 µM, compound concentration 1 uM, replicate 1
EXPERIMENTAL READOUT: Population Mitotic Cells (%)

- COMPOUND: "CC(=O)c1cc(-c2cc(C(=O)NC3CC3)ccc2C)c2ncccn12"
  RESULT: "48%"
- COMPOUND: "CC(C)Oc1ccc(C(=O)N[C@H](CNC(=O)CN(C)C)Cc2ccc(-c3cn4cccc([C@H](C)O)c4n3)cc2)cc1Cl [GSK-923295A]"
  RESULT: "84%"
- COMPOUND: "CC(C)(C)c1cnc(CSc2cnc(NC(=O)C3CCNCC3)s2)o1"
  RESULT: "74%"
- COMPOUND: "CCCn1c(=O)c2[nH]c(C34CC5CC(CC3C5)C4)nc2n(CCC)c1=O"
  RESULT: "36%"

---

test system: Fibroblast; test: Multiplex assay against human fibroblast; type: toxicity, cell-based; conditions: 24 h, 10 µM, compound concentration 10 uM, replicate 2
EXPERIMENTAL READOUT: Population Normal (%)

- COMPOUND: "COc1cc2c(Nc3ccc(NC(=O)c4ccccc4)cc3)ncnc2cc1OCCCN1CCOCC1"
  TARGET DESC: "Fibroblast"
  MEASUREMENT UNIT: "%"
  RECORDED NUMBER: 67
- COMPOUND: "CNC(=O)c1cc(Oc2ccc(NC(=O)Nc3cc(C(C)(C)C)nn3-c3ccc4ncccc4c3)c(F)c2)ccn1"
  TARGET DESC: "Fibroblast"
  MEASUREMENT UNIT: "%"
  RECORDED NUMBER: 66
- COMPOUND: "CCOc1cc2ncc(C#N)c(Nc3ccc(OCc4cccc(F)c4)c(Cl)c3)c2cc1NC(=O)/C=C/CN(C)C"
  TARGET DESC: "Fibroblast"
  MEASUREMENT UNIT: "%"
  RECORDED NUMBER: 54
- COMPOUND: "CCc1cc2c(cc1CC)CC(NC[C@H](O)c1ccc(O)c3[nH]c(=O)ccc13)C2"
  TARGET DESC: "Fibroblast"
  MEASUREMENT UNIT: "%"
  RECORDED NUMBER: 93
- COMPOUND: "CC(C)(C)c1cnc(CSc2cnc(NC(=O)C3CCNCC3)s2)o1"
  TARGET DESC: "Fibroblast"
  MEASUREMENT UNIT: "%"
  RECORDED NUMBER: 68
- COMPOUND: "Cc1cn(-c2cc(NC(=O)c3ccc4c(c3)CN(c3cncnc3)C[C@@H]4C)cc(C(F)(F)F)c2)cn1"
  TARGET DESC: "Fibroblast"
  MEASUREMENT UNIT: "%"
  RECORDED NUMBER: 63
- COMPOUND: "COc1ccc(NS(=O)(=O)c2sc3ccc(Cl)cc3c2C)cc1N1CCNCC1.Cl"
  TARGET DESC: "Fibroblast"
  MEASUREMENT UNIT: "%"
  RECORDED NUMBER: 97
- COMPOUND: "CCOc1cc(N2CCC(O)CC2)ccc1Nc1ncc2c(n1)N(C1CCCC1)CCC(=O)N2C"
  TARGET DESC: "Fibroblast"
  MEASUREMENT UNIT: "%"
  RECORDED NUMBER: 72
- COMPOUND: "Nc1ccc(C(=O)Nc2cccc(-c3nc(N4CCOCC4)c4oc5ncccc5c4n3)c2)cn1"
  TARGET DESC: "Fibroblast"
  MEASUREMENT UNIT: "%"
  RECORDED NUMBER: 80
- COMPOUND: "Cl.Cl.Nc1ncnc2c1c(-c1cccc(OCc3ccccc3)c1)cn2[C@H]1C[C@@H](CN2CCC2)C1"
  TARGET DESC: "Fibroblast"
  MEASUREMENT UNIT: "%"
  RECORDED NUMBER: 90
- COMPOUND: "COc1cc2c(NC3CCN(C(C)C)CC3)nc(N3CCC(F)(F)CC3)nc2cc1OCCCN1CCCC1"
  TARGET DESC: "Fibroblast"
  MEASUREMENT UNIT: "%"
  RECORDED NUMBER: 92
- COMPOUND: "CCC(=O)O[C@]1(C(=O)SCF)[C@H](C)C[C@H]2[C@@H]3C[C@H](F)C4=CC(=O)C=C[C@]4(C)[C@@]3(F)[C@@H](O)C[C@@]21C [FLUTICASONE PROPIONATE]"
  TARGET DESC: "Fibroblast"
  MEASUREMENT UNIT: "%"
  RECORDED NUMBER: 91
- COMPOUND: "CNC(=O)c1nn(C)c2c1C(C)(C)Cc1cnc(Nc3ccc(N4CCN(C)CC4)cc3)nc1-2"
  TARGET DESC: "Fibroblast"
  MEASUREMENT UNIT: "%"
  RECORDED NUMBER: 81
- COMPOUND: "CN(C)CCOc1ccc(-c2nc(-c3ccncc3)c(-c3ccc4c(c3)CC/C4=N\\O)[nH]2)cc1"
  TARGET DESC: "Fibroblast"
  MEASUREMENT UNIT: "%"
  RECORDED NUMBER: 46
- COMPOUND: "CNc1oc(-c2cccc3ccccc23)nc1C#N"
  TARGET DESC: "Fibroblast"
  MEASUREMENT UNIT: "%"
  RECORDED NUMBER: 55
- COMPOUND: "N#Cc1cnc(Nc2cc(NC[C@H]3CNCCO3)c(C(F)(F)F)cn2)cn1"
  TARGET DESC: "Fibroblast"
  MEASUREMENT UNIT: "%"
  RECORDED NUMBER: 72
- COMPOUND: "c1ccc2oc(-c3csc(C4CCN(Cc5nc6ncccc6[nH]5)CC4)n3)cc2c1"
  TARGET DESC: "Fibroblast"
  MEASUREMENT UNIT: "%"
  RECORDED NUMBER: 65
- COMPOUND: "Cc1nc(Cc2cccc(C(F)(F)F)c2)sc1-c1ccc(C(N)=O)nc1 [TP-024n]"
  TARGET DESC: "Fibroblast"
  MEASUREMENT UNIT: "%"
  RECORDED NUMBER: 97
- COMPOUND: "CCn1c(-c2nonc2N)nc2cnc(Oc3cccc(NC(=O)c4ccc(OCCN5CCOCC5)cc4)c3)cc21 [GSK-269962A]"
  TARGET DESC: "Fibroblast"
  MEASUREMENT UNIT: "%"
  RECORDED NUMBER: 94
- COMPOUND: "Nc1nc2c(c(N3CCNCC3)n1)CCC1=C2[C@@H]2CCCC[C@@H]2O1"
  TARGET DESC: "Fibroblast"
  MEASUREMENT UNIT: "%"
  RECORDED NUMBER: 97
- COMPOUND: "CCCn1c(=O)c2[nH]c(C34CC5CC(CC3C5)C4)nc2n(CCC)c1=O"
  TARGET DESC: "Fibroblast"
  MEASUREMENT UNIT: "%"
  RECORDED NUMBER: 94
- COMPOUND: "Cc1c(Oc2ccc(F)cc2)c(OC(C)C)nn1-c1ccc(C2CC2)cn1"
  TARGET DESC: "Fibroblast"
  MEASUREMENT UNIT: "%"
  RECORDED NUMBER: 61
- COMPOUND: "CC(C)N1CCC(C)(C)c2cc(C#Cc3ccc(C(=O)O)cc3)ccc21"
  TARGET DESC: "Fibroblast"
  MEASUREMENT UNIT: "%"
  RECORDED NUMBER: 33
